Provide the recorded fold change of 2-Phenylethylamine concentration for the entries that follow.
# Test system: Ruminococcus gnavus DSM 108212
# assay explanation: fold change of 2-Phenylethylamine concentration vs plate DMSO controls (fold change (ratio)); higher = more amine produced, active = hit call of the paper (significant change in both replicates, either direction)
# condition label: incubation time: 27 h, anaerobic, 37 °C
Counter-ions that a name gives are not always drawn.
Numbers only.

CCc1oc2ccccc2c1C(=O)c1cc(I)c(O)c(I)c1 [Benziodarone] (20 µM)    0.489
C[C@H](N[C@@H](CCc1ccccc1)C(=O)O)C(=O)N1CCC[C@H]1C(=O)O [Enalaprilat dihydrate] (20 µM)    1.04
COCCc1ccc(OCC(O)CNC(C)C)cc1 (stereo not drawn) [Metoprolol-(+)-tartrate salt] (20 µM)    0.995

Now examine the next entry.
Test system Ruminococcus gnavus DSM 108212; read-out fold change of 2-Phenylethylamine concentration; what value for c1ccc2cc3ccccc3cc2c1 [Anthracene] (20 µM) ?
0.963

----------
# Tested on: Clostridium sporogenes DSM 1664
# assay explanation: growth (OD595) fold change vs plate DMSO controls (fold change (ratio)); higher = more growth
# condition label: incubation time: 27 h, anaerobic, 37 °C
Structures can show the parent of a compound that is named as a salt.
measured attribute: growth
Give bare numbers.

S=C([S-])NCCNC(=S)[S-].S=C([S-])NCCNC(=S)[S-].[Mn+2].[Zn+2] (20 µM)    0.889
CN(C)CCC(c1ccc(Cl)cc1)c1ccccn1 (stereo not drawn) [Chlorpheniramine maleate] (20 µM)    0.73
CC(C)=CCOc1ccc(/C=C/C(=O)c2ccc(OCC=C(C)C)cc2OCC(=O)O)cc1 [Sofalcone] (20 µM)    0.713
C#C[C@]1(O)CC[C@H]2[C@@H]3CCC4=CC(=O)CC[C@@H]4[C@H]3CC[C@@]21C [Norethindrone] (20 µM)    1.09
CC(C)=CCC1C(=O)N(c2ccccc2)N(c2ccccc2)C1=O [Feprazone] (20 µM)    1.07
Cc1cccc(C)c1NC(=O)C(C)N (stereo not drawn) [Tocainide hydrochloride] (20 µM)    0.909
Nc1ccc(S(=O)(=O)Nc2cnc3ccccc3n2)cc1 [Sulfaquinoxaline sodium salt] (20 µM)    1.03

Endpoint output: growth of CC(=O)Oc1cc(C(F)(F)F)ccc1C(=O)O [Triflusal] (20 µM) . Value?
1.01

----------
# System: Escherichia coli IAI1
# assay explanation: fold change of Putrescine concentration vs plate DMSO controls (fold change (ratio)); higher = more amine produced, active = hit call of the paper (significant change in both replicates, either direction)
# condition label: incubation time: 27 h, anaerobic, 37 °C
Structures can show the parent of a compound that is named as a salt.
Provide the recorded fold change of Putrescine concentration for the entries that follow.
Answers are plain numbers.

Solved entries (count: 3):
C#C[C@]1(O)CC[C@H]2[C@@H]3[C@H](C)CC4=C(CCC(=O)C4)[C@H]3CC[C@@]21C [Tibolone] (20 µM)    1.03
CCc1ccc(C(=O)C(C)CN2CCCCC2)cc1 (stereo unspecified) [Eperisone Hydrochloride] (20 µM)    0.986
CC(c1cc2ccccc2s1)N(O)C(N)=O (stereo unspecified) [Zileuton] (20 µM)    0.86

Each molecule below has a reported value. Please supply its fold change of Putrescine concentration.
1. COc1ccc2c3c1O[C@H]1C[C@@H](O)C=C[C@@]31CCN(C)C2 [Galanthamine hydrobromide] (20 µM)
2. CC1(C)O[C@@H]2C[C@H]3[C@@H]4C[C@H](F)C5=CC(=O)C=C[C@]5(C)[C@@]4(F)[C@@H](O)C[C@]3(C)[C@]2(C(=O)CO)O1 [Fluocinolone acetonide] (20 µM)
3. CO[C@@]1(NC(=O)CSCC#N)C(=O)N2C(C(=O)O)=C(CSc3nnnn3C)CS[C@@H]21 [Cefmetazole sodium salt] (20 µM)
4. CN1C(C(=O)Nc2ccccn2)=C(O)c2ccccc2S1(=O)=O [Piroxicam] (20 µM)

1: 1.03; 2: 1.05; 3: 0.284; 4: 1.03

----------
# Test system: Ruminococcus gnavus DSM 108212
# assay explanation: growth (OD595) fold change vs plate DMSO controls (fold change (ratio)); higher = more growth
# condition label: incubation time: 27 h, anaerobic, 37 °C
Structures can show the parent of a compound that is named as a salt.
measured attribute: growth
Answers are plain numbers.

Solved entries (count: 5):
CCCc1c2oc(C(=O)O)cc(=O)c2cc2c(=O)cc(C(=O)O)n(CC)c12 [Nedocromil sodium] (20 µM)    0.981
Clc1ccc(C(Cn2ccnc2)OCc2c(Cl)cccc2Cl)c(Cl)c1 (stereo unspecified) [Isoconazole] (20 µM)    0.0371
CO[C@H]1/C=C/O[C@@]2(C)Oc3c(C)c(O)c4c(O)c(c(/C=N/N5CCN(C6CCCC6)CC5)c(O)c4c3C2=O)NC(=O)/C(C)=C\C=C\[C@H](C)[C@H](O)[C@@H](C)[C@@H](O)[C@@H](C)[C@H](OC(C)=O)[C@@H]1C [Rifapentine] (20 µM)    0.198
CC(C)NNC(=O)c1ccncc1 [Iproniazide phosphate] (20 µM)    1.06
CNCC[C@@H](Oc1ccccc1C)c1ccccc1 [Tomoxetine hydrochloride] (20 µM)    1.1

Each compound below has a reported value. Please supply its growth.
1. COCCOC(=O)C1=C(C)NC(C)=C(C(=O)OC/C=C/c2ccccc2)C1c1cccc([N+](=O)[O-])c1 (stereo unspecified) [Cilnidipine] (20 µM)
2. CCCCCCCCCCCCCCCC[N+](C)(C)CCN(Cc1ccc(OC)cc1)c1ncccn1 [Thonzonium bromide] (20 µM)
3. CC(C(=O)O)c1cccc(Oc2ccccc2)c1 (stereo unspecified) [Fenoprofen calcium salt dihydrate] (20 µM)
4. Nc1ccn([C@@H]2O[C@H](CO)[C@@H](O)C2(F)F)c(=O)n1 [Gemcitabine] (20 µM)
5. CCCN(CCC)CCc1cccc2c1CC(=O)N2 [Ropinirole hydrochloride] (20 µM)

0.973
1
1.21
0
1.02

Each compound below has a reported value. Please supply its growth.
1. CN(C)c1nc(N(C)C)nc(N(C)C)n1 [Altretamine] (20 µM)
2. CN(C)C/C=C(/c1ccc(Br)cc1)c1cccnc1 [Zimelidine dihydrochloride monohydrate] (20 µM)
3. c1ccc2c(c1)-c1cccc3c1c-2cc1ccccc13 [Benzo[b]fluoranthene] (20 µM)
4. COc1cc([C@@H]2c3cc4c(cc3[C@@H](O[C@@H]3O[C@@H]5CO[C@@H](C)O[C@H]5[C@H](O)[C@H]3O)[C@H]3COC(=O)[C@H]23)OCO4)cc(OC)c1O [Etoposide] (20 µM)
5. CC(=O)CC(c1ccccc1)c1c(O)c2ccccc2oc1=O (stereo unspecified) (20 µM)

0.972
1.03
1
0.101
1.15

Each compound below has a reported value. Please supply its growth.
1. CCCc1nc(C)c2c(=O)nc(-c3cc(S(=O)(=O)N4CCN(CC)CC4)ccc3OCC)[nH]n12 [Vardenafil] (20 µM)
2. CCN(CC)CCNC(=O)c1cc(Br)c(N)cc1OC [Bromopride] (20 µM)
3. O=C(O)CCNC(=O)c1ccccc1 [Betamipron] (20 µM)
4. COC(=O)C1=C(C#N)NC(C)=C(C(=O)OC(C)C)C1c1cccc([N+](=O)[O-])c1 (stereo unspecified) [Nilvadipine] (20 µM)
5. CC1Cc2ccccc2N1NC(=O)c1ccc(Cl)c(S(N)(=O)=O)c1 (stereo unspecified) [Indapamide] (20 µM)
6. CC(=O)Nc1ccc(CC(=O)O)cc1 [Actarit] (20 µM)
7. CCCCCOC(=O)Nc1nc(=O)n([C@@H]2O[C@H](C)[C@@H](O)[C@H]2O)cc1F [Capecitabine] (20 µM)

1: 1.27; 2: 1.12; 3: 0.512; 4: 0.932; 5: 0.659; 6: 1.11; 7: 0.98

Each compound below has a reported value. Please supply its growth.
1. CCCCC1(COC(=O)CCC(=O)O)C(=O)N(c2ccccc2)N(c2ccccc2)C1=O [Suxibuzone] (20 µM)
2. O=c1[nH]c(=O)n([C@H]2C[C@H](O)[C@@H](CO)O2)cc1/C=C/Br [Brivudine] (20 µM)
3. CCC(NC(C)C)C(O)c1ccc(O)c2[nH]c(=O)ccc12 (stereo unspecified) [Procaterol hydrochloride] (20 µM)

[1.12, 1.06, 1.02]

Each compound below has a reported value. Please supply its growth.
1. CC(=O)O[C@@]12CO[C@@H]1C[C@H](O)[C@@]1(C)C(=O)[C@H](O)C3=C(C)[C@@H](OC(=O)[C@H](O)[C@@H](NC(=O)OC(C)(C)C)c4ccccc4)C[C@@](O)([C@@H](OC(=O)c4ccccc4)[C@H]21)C3(C)C [Docetaxel] (20 µM)
2. Cc1cc(C(=O)NNCc2ccccc2)no1 [Isocarboxazid] (20 µM)

[1.05, 0.995]

Each compound below has a reported value. Please supply its growth.
1. COC1=CC(=O)C[C@@H](C)[C@]12Oc1c(Cl)c(OC)cc(OC)c1C2=O [Griseofulvin] (20 µM)
2. CCCNC(C)(C)COC(=O)c1ccccc1 [Meprylcaine hydrochloride] (20 µM)
3. CN(C)CCC(c1ccc(Br)cc1)c1ccccn1 (stereo unspecified) [Brompheniramine maleate] (20 µM)
4. CC(C)OC(=O)C(C(=O)OC(C)C)=C1SC=CS1 [Malotilate] (20 µM)

1. 0.915
2. 1.17
3. 1.17
4. 1.16
